# target-entity: human glucagon receptors (Homo sapiens)
# Construct: a region corresponding to Open Reading Frame (ORF) in the cDNA; expressed in transfected cells
# procedure-text: cAMP activity of glucagon derivatives in CHO cell line transfected with human glucagon receptor (LANCE cAMP kit)
# Type: cell-based
# reported-conditions: cAMP EC50 compared with that of native glucagon; CHO cells with human glucagon receptor
Bridge positions count the residues as written; N and C are the ends. Square brackets hold non-standard residues; d marks the D form. Ends that are not written are not given here. Aib = CC(C)(N)C(=O)O
measured-metric: In vitro Activity (Relative Activity of SEQ ID NO: 1, %)

| sequence-string | value-unit | reported-measurement |
| --- | --- | --- |
| YXQGTFTSDYSKYLCEKRAQDFVVWLMNT (Y[Aib]QGTFTSDYSKYLCEKRAQDFVVWLMNT) [SEQ ID NO: 15, glucagon derivative, X = Aib] | % | 1.1 |
| YXQGTFTSDYSCYLDSRRAQDFVQWLMNT (Y[Aib]QGTFTSDYSCYLDSRRAQDFVQWLMNT) [SEQ ID NO: 13, glucagon derivative, X = Aib] | % | 5.2 |
| YXQGTFTSDYSKYLDCRRAQVFVQWLMRT (Y[Aib]QGTFTSDYSKYLDCRRAQVFVQWLMRT) [SEQ ID NO: 16, glucagon derivative, X = Aib] | % | 4.2 |

A. YXQGTFVSDCSKYLDERRAKDFVQWLMNT (Y[Aib]QGTFVSDCSKYLDERRAKDFVQWLMNT; bridge 16-20) [SEQ ID NO: 39, glucagon derivative, X = Aib]
B. YXQGTFTSDYSKYLDEKRAKEFVQWLMNTC (Y[Aib]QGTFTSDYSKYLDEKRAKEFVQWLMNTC; bridge 16-20) [SEQ ID NO: 12, glucagon derivative, X = Aib]
C. WXQGTFTSDYSKYLDECRAKDFVQWLMNT (W[Aib]QGTFTSDYSKYLDECRAKDFVQWLMNT; bridge 16-20) [SEQ ID NO: 26, glucagon derivative, X = Aib]
Query string: Sort by In vitro Activity (Relative Activity of SEQ ID NO: 1, %), descending. Enter labels, ranked according to the request.
Result string: B, A, C

P. YXQGTFTSDYSKYCDERRAKEFVQWLMNT (Y[Aib]QGTFTSDYSKYCDERRAKEFVQWLMNT; bridge 16-20) [SEQ ID NO: 35, glucagon derivative, X = Aib]
Q. HSQGTFTSDYSKYLDCERAQDFVQWLMNT (glucagon derivative) [SEQ ID NO: 3]
Query string: Recorded In vitro Activity (Relative Activity of SEQ ID NO: 1, %) values differ for P and Q ; which one is higher? When you have decided, please share the label of that item.
Result string: P
(P: 17.7%, Q: 6.1%)

----------
# target-entity: human glucagon receptors (Homo sapiens, UniProt P47871)
# Construct: a region corresponding to Open Reading Frame (ORF) in the cDNA; expressed in transfected cells
# Sequence (P47871 26-477): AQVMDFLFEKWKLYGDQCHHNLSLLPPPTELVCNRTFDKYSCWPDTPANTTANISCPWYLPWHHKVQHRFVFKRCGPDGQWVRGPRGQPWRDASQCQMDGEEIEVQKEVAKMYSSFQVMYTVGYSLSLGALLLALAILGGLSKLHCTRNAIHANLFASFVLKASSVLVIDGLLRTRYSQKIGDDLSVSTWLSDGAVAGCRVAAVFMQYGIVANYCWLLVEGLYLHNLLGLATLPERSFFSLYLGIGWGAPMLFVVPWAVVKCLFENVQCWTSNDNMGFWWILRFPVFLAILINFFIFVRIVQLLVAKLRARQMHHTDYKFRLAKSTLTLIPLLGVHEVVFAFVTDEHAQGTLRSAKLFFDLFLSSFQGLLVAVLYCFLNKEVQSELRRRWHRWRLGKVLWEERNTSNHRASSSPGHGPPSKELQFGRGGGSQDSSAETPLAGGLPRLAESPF
# procedure-text: cAMP activity of glucagon derivatives in CHO cell line transfected with human glucagon receptor (LANCE cAMP kit)
# Type: cell-based
# reported-conditions: cAMP EC50 compared with that of native glucagon; CHO cells with human glucagon receptor
# Protocol: PCR was performed using a region corresponding to Open Reading Frame (ORF) in the cDNA (OriGene Technologies, Inc., USA) of human glucagon receptor gene as a template along with the following forward and reverse primers (SEQ ID NOS: 47 and 48, respectively), which include each of the EcoRI and XhoI restriction sites. The PCR product was cloned into a known animal cell expression vector, x0GC/dhfr, to prepare a recombinant vector x0GC/GCGR. […]
Bridge positions count the residues as written; N and C are the ends. Square brackets hold non-standard residues; d marks the D form. Ends that are not written are not given here. Aib = CC(C)(N)C(=O)O
measured-metric: In vitro Activity (Relative Activity of SEQ ID NO: 1, %)

// worked examples, In vitro Activity (Relative Activity of SEQ ID NO: 1, %) included
| sequence-string | target-entity | value-unit | reported-measurement |
| --- | --- | --- | --- |
| YXQGTFTSDYSKYLDEKRAKCFVQWLMNT (Y[Aib]QGTFTSDYSKYLDEKRAKCFVQWLMNT; bridge 16-20) [SEQ ID NO: 25, glucagon derivative, X = Aib] | human glucagon receptors (Homo sapiens, UniProt P47871) | % | 46.9 |
| YXQGTFTSDYSKYLDSRRAQDFVQWLMNT (Aib at position 2; glucagon derivative; (2) Xaa is aminoisobutyric acid (Aib)) [SEQ ID NO: 33, glucagon derivative, X = Aib] | human glucagon receptors (Homo sapiens, UniProt P47871) | % | 108.2 |
| YXQGTFTSDYSKYCDEKRAKEFVQWLMNT (Y[Aib]QGTFTSDYSKYCDEKRAKEFVQWLMNT; bridge 16-20) [SEQ ID NO: 23, glucagon derivative, X = Aib] | human glucagon receptors (Homo sapiens, UniProt P47871) | % | 76.8 |
| HSQGTFTSDYSKYLDSCEAQDFVQWLMNT (glucagon derivative) [SEQ ID NO: 5] | human glucagon receptors (Homo sapiens, UniProt P47871) | % | 0.3 |
| YXQGTFTSDYSKYLDCKRAKEFVQWLMNT (Y[Aib]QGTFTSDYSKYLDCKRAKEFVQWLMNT; bridge 17-21) [SEQ ID NO: 31, glucagon derivative, X = Aib] | human glucagon receptors (Homo sapiens, UniProt P47871) | % | 6.3 |
| YXQGTFTSDCSKYLDSRRAQDFVQWLMNT (Y[Aib]QGTFTSDCSKYLDSRRAQDFVQWLMNT) [SEQ ID NO: 43, glucagon derivative, X = Aib] | human glucagon receptors (Homo sapiens, UniProt P47871) | % | 1.6 |
| HSQGTFTSDYSKYLDCDRAQDFVQWLMNT (glucagon derivative) [SEQ ID NO: 2] | human glucagon receptors (Homo sapiens, UniProt P47871) | % | 0.6 |
| YXQGTFCSDYSKYLDSRRAQDFVQWLMNT (Y[Aib]QGTFCSDYSKYLDSRRAQDFVQWLMNT) [SEQ ID NO: 42, glucagon derivative, X = Aib] | human glucagon receptors (Homo sapiens, UniProt P47871) | % | 37.9 |

a. YXQGTFVSDYSKYLDERRAKDFVQWLMNTC (Y[Aib]QGTFVSDYSKYLDERRAKDFVQWLMNTC; bridge 16-20) [SEQ ID NO: 40, glucagon derivative, X = Aib]
b. YXQGTFTSDYSKYLDERRAKEFVQWLMNTC (Y[Aib]QGTFTSDYSKYLDERRAKEFVQWLMNTC; bridge 16-20) [SEQ ID NO: 37, glucagon derivative, X = Aib]
Query string: Exercise: compare a and b ; which one has the greater In vitro Activity (Relative Activity of SEQ ID NO: 1, %)? Field: selected label. Fill in the label of the entry you choose.
Result string: b
